Listing: growth inhibition of selected molecules
- method notes: NCI Yeast Anticancer Drug Screen. Data for the sgs1 mgt1 strain (AID 161);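 further: 0% = growth of cultures given vehicle only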
- cond: S. cerevisiae sgs1 mgt1 strain, at 5.0 µM (retest, dose inferred, filed as 0.5), active compounds read high
About 79,000 compounds went through this panel and 15% of them were active in at least one assay; those are over-represented in the sample as a whole. Where a SMILES comes first, the peptide text is derived from it.
assay readout: growth inhibition (%)

Nc1nc(-c2ccccn2)cc2ccccc12 = 22
C=C1C(=O)OC2CC(C)C3C4OC4C(O)C3(C)C(O)C12 (stereo not drawn) = 4
COc1ccc2c(c1)c[n+](C)c1c3cc(OC)c(OC)cc3ccc21 = -21
c1ccc(C(c2ccccc2)n2ccnc2)cc1 = -23
O=C1OC(c2cccnc2)OC(c2ccccc2)=C1C(=O)c1ccccc1 (stereo not drawn) = 4
CC(C)(C)CC(C)(C)c1ccc(OCCO)cc1 = -6
O=[N+]([O-])c1ccc(Cl)c(C2CC(c3cccc4ccccc34)=Nc3ccccc3S2)c1 (stereo not drawn) = 2
O=[N+]([O-])c1ccc(N/N=C/CC(O)(C(F)(F)F)C(F)(F)F)c([N+](=O)[O-])c1 = -1
CC(NC(=O)C(N)Cc1ccccc1)C(=O)NC1C(CO)OC(n2cnc3c(N)ncnc32)C1O (stereo not drawn) = -5
CCOc1ccc(N/N=C(\CCC(=O)O)C(=O)O)cc1 = -3
Nc1cc(Cl)c(S(=O)(=O)O)cc1Cl = 9
CN=c1sc2nc(C#N)c(C#N)nc2n1C = -23
O=C1C(=Cc2ccc(O)cc2)N=C(c2ccccc2)N1n1c(-c2ccccc2)nc2ccccc2c1=O = 9
Cc1ccccc1N=Nc1ccc(N=Nc2ccc(N)nc2N)c(C)c1 = -1
COC(O)C(=O)c1c2c(cc3c1CCC3)CCCC2 (stereo not drawn) = 98
O=Cc1cc([N+](=O)[O-])cc(CCl)c1O = -59
O=C(O)c1ccc2c(c1)Cc1cc([N+](=O)[O-])ccc1-2 = 7
COC(=O)c1ccc(O)c(OC)c1 = 0
S=c1nc[nH]c2[nH]ccc12 = 0
CS(=O)(=O)OC1CC(n2ccc(=O)[nH]c2=O)OC1COC(c1ccccc1)(c1ccccc1)c1ccccc1 (stereo not drawn) = -17
C=C1C(=O)N2c3ccccc3C(C)(C)C2(S)C(=O)N1C (stereo not drawn) = 3
Cc1ccc(OC(=O)c2ccc(N)cc2O)cc1 = -3
CC(C)C(NC(=O)C(N)CCC(=O)O)C(=O)O (stereo not drawn) (H-Glu-Val-OH; configuration not given here) = 0

----------
- method notes: NCI Yeast Anticancer Drug Screen. Data for the bub3 strain (AID 167)
- cond: S. cerevisiae bub3 mutant strain, at 50.0 µM
Compounds without any hit were thinned out: in the full panel of roughly 79,000, 15% have a hit. Active and inactive are the calls of the source. Cut-off read from the data, not from the text of the source: active = growth inhibition above about 70%; inactive = the rest.
Possible outcomes: active, inactive

CNC(=O)OCCN1c2ccccc2Sc2ccccc21 = active
O=Cc1cc([N+](=O)[O-])ccc1O.[Eu] = active
O=[N+]([O-])c1cc([N+](=O)[O-])c2ccccc2c1NS(=O)(=O)/C=C/c1ccccc1 = inactive
CC(=O)OC(c1ccccc1)c1ccc(Cl)cc1 (stereo unspecified) = inactive
O=C(c1ccco1)N(C(=S)N1CCN(c2ccccn2)CC1)C1CCCCC1 = active
CC(=O)Nc1ccc(S(=O)(=O)N/N=C/c2ccc(C)cc2)cc1 = inactive
O=S(=O)(CC(Cl)c1ccccc1)c1nc2ccccc2s1 (stereo unspecified) = active
CC1OC(OC2CC(O)(C(=O)CO)Cc3c(O)c4c(c(O)c32)C(=O)c2ccccc2C4=O)CC(N)C1O (stereo unspecified) = active
CCOc1ccc(NC(=O)C(=O)NO)cc1 = active
COC(=O)c1ccc(O)c(OC)c1 = inactive
CCCCCCCCCCCCCCCC[N+](C)(C)c1nc(Cl)nc(Cl)n1 = active

----------
- method notes: NCI Yeast Anticancer Drug Screen. Data for the mec2-1 strain (AID 157)
- cond: S. cerevisiae mec2-1 strain, at 50.0 µM (retest, dose inferred, filed as 5.0), active compounds read high
This is part of a sample that, as a whole, favours compounds with a hit. Of some 79,000 tested, about 15% had one in any assay. The source made the active and inactive calls. Rule as the data show it: active = growth inhibition above about 70%; inactive = the rest.
Listing: growth inhibition of selected compounds
assay readout: growth inhibition

O=C1C(CN(Cc2ccccc2)Cc2ccccc2)CCCC1CN(Cc1ccccc1)Cc1ccccc1 (configuration not stated) = 22% (inactive)
NCC(=O)OCN1C(=O)C2C3C=CC(C2C1=O)C1C2C(=O)N(COC(=O)CN)C(=O)C2C31 (configuration not stated) = 39% (inactive)
O=C(/C=C/c1ccc(Cl)cc1)NC1C=Nc2ccc([N+](=O)[O-])cc2NC1=O (configuration not stated) = 93% (active)
CNC(=O)OCCN1c2ccccc2Sc2ccccc21 = 68% (inactive)
Fc1ccc2nc3ccccc3nc2c1 = 27% (inactive)
CCN(CC)Cc1cc2[nH]c3c4ccc(Cl)cc4ncc3c2cc1OC (tested in a mixture with another compound) = 58% (inactive)
O=C(O)c1ccc2c(c1)Cc1cc([N+](=O)[O-])ccc1-2 = 72% (active)
Cc1c2cc[n+](C)cc2c(C)c2c1[nH]c1ccccc12 = 22% (inactive)
NNc1ccc2ccccc2c1 = 56% (inactive)
O=C(NO)c1cccnc1 = -1% (inactive)
O[Si](c1ccccc1)(c1ccccc1)c1ccccc1.O[Si](c1ccccc1)(c1ccccc1)c1ccccc1.O[Si](c1ccccc1)(c1ccccc1)c1ccccc1.[O]=[V] = 50% (inactive)
COC(=O)[C@]1(C)CCC[C@]2(C)c3cc(C(C)=O)c(C(C)C)cc3CC[C@@H]12 = 10% (inactive)
O=C(O)C1(Cc2ccccc2)Cc2cc3c(cc2C1)CCC3 = -4% (inactive)
CC(C)C1=CC23CCC4C(C)(C(=O)O)CCCC4(C)C2CC1C1C(=O)OC(=O)C13 (configuration not stated) = 100% (active)
Cc1noc(-c2ccc([N+](=O)[O-])o2)n1 = 82% (active)
O=C1c2cccc(O)c2C(=O)c2c(O)cccc21 = 36% (inactive)
O=c1[nH]c(SCc2c(Cl)c(Cl)c(Cl)c(Cl)c2Cl)nc(=S)[nH]1 = 44% (inactive)
CCOC(=O)c1c[nH]c2cc(C(F)(F)F)ccc2c1=O = 96% (active)
CCN(CC)CCOc1ccc2c(C)c(-c3ccccc3)c(=O)oc2c1 = 34% (inactive)
CCC[CH2][Sn]1([CH2]CCC)[O]N=C(c2ccccc2)C(c2ccccc2)[O]1 (configuration not stated) = 20% (inactive)
COc1ccc(Cc2ccc(O)cc2)cc1 = 88% (active)
Cc1ccc(C(C)C)c2c1CN(CCN1COc3c(C(C)C)ccc(C)c3C1)CO2 = 3% (inactive)

----------
- method notes: NCI Yeast Anticancer Drug Screen. Data for the bub3 strain (AID 167)
- cond: S. cerevisiae bub3 mutant strain, at 5.0 µM (retest, dose inferred, filed as 0.5), active compounds read high
- Experimental: Growth inhibition of yeast strains with defined genetic alterations is measured as a screen for potential anti-cancer activity. Selected strains with alterations in DNA damage repair or cell cycle control were exposed to compounds and growth inhibition was measured relative to vehicle treated controls. The strain used in this assay is bub3
This is part of a sample that, as a whole, favours compounds with a hit. Of some 79,000 tested, about 15% had one in any assay. Calls of active or inactive are those of the source. Cut-off read from the data, not from the text of the source: active = growth inhibition above about 70%; inactive = the rest. Where a SMILES comes first, the peptide text is derived from it.
assay readout: growth inhibition

Cc1ccc(C(C)C)c2c1CN(CCN1COc3c(C(C)C)ccc(C)c3C1)CO2 = -1% (inactive)
C=C1C(=O)OC2C[C@@]3(C)CCC[C@H](C)C3=CC12 (stereo not given in full) (tested in a mixture with another compound) = 5% (inactive)
O=C(O)c1ccccc1C(=O)O = 2% (inactive)
O=C1C(=Cc2c[nH]c3ccccc23)C(=O)c2ccccc21 = 3% (inactive)
O=C1c2cccc(O)c2C(=O)c2c(O)cccc21 = 24% (inactive)
Nc1ccccc1Oc1ccc(Cl)cc1Cl = -18% (inactive)
O=C1C=C(O)c2ccccc2C1=O.[Ag] = 99% (active)
Oc1c(Cl)c(Cl)c(Cl)c2ccccc12 = 92% (active)
Cc1cc(O)c(C(C)C)cc1Cl = -4% (inactive)
O=C(Nc1ccc(C(=O)O)c(O)c1)c1ccccc1 = 1% (inactive)
Cc1cc2c(C(C)C)c(O)c(O)c(C=Nc3ccccc3S)c2c(O)c1-c1c(C)cc2c(C(C)C)c(O)c(O)c(C=Nc3ccccc3S)c2c1O = -8% (inactive)
CCOC(=O)[C@H]1Nc2ccc([N+](=O)[O-])cc2C2c3ccccc3CC21 (stereo not given in full) = 6% (inactive)
N#CCCC(CCC#N)(CCC#N)C(=O)c1ccccc1 = 10% (inactive)
CC(C)C(NC(=O)C(N)CCC(=O)O)C(=O)O (stereo not drawn) (H-Glu-Val-OH; configuration not given here) = -1% (inactive)
CCC(=O)OCOc1ccc(/C=C2\CCC(CN(C)C)C2=O)cc1 (stereo not given) = 36% (inactive)
Nc1ccc(N=Nc2ccccc2)c(N)n1 = -71% (inactive)
NNc1c2ccccc2nc2ccccc12 = -5% (inactive)
COC1CC2CCC(C)[C@](O)(O2)C(=O)C(=O)N2CCCCC2C(=O)OC(C(C)CC2CCC(O)C(OC)C2)CC(=O)C(C)C=C(C)C(OC(=O)CN(C)C)C(OC)C(=O)C(C)CC(C)/C=C/C=C/C=C\1C (stereo not given in full) = 50% (inactive)
COC1/C=C/OC2(C)Oc3c(C)c(O)c4c(c3C2=O)C(=O)C=C(NC(=O)/C(C)=C\C=C\C(C)C2OC(C)(C)OC(C2C)C(C)C(OC(C)=O)C1C)C4=O (stereo not given) = 2% (inactive)
CCOC(=O)C(Cc1c[nH]c2cc([N+](=O)[O-])ccc12)NS(=O)(=O)c1ccc2ccccc2c1 (stereo not given) = 9% (inactive)
